# Tested on: KRAS PDC multicell spheroid viability;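 further: drug exposure lasted seven days; 100% = DMSO vehicle wells and lower means fewer viable cells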
# protocol-text: Anticancer human tumor 521955-158-R6-J3-PDC patient-derived pancreatic carcinoma cell line growth inhibition [KRAS2]
# test-context: second compound 1 µM; first compound 0.0316 µM; stronger effect = lower value
# Text: Multicellular complex tumor spheroid response to RAS pathway inhibitors in combination with a targeted agents in patient-derived cell lines with oncogenic KRAS variants from multiple cancer types A high-throughput screen of multi-cell type tumor spheroids was designed to identify active combinations of targeted small molecules and KRAS pathway inhibitors. […] Compounds. […] If the clinical Cmax for an agent had not been determined, the highest concentration tested was 10 microM. […]
property-label: viability, T/C (%)
Answer with a number only, understood to be in %.

**Q:** Need viability, T/C of O=C(c1cc(Cc2n[nH]c(=O)c3ccccc23)ccc1F)N1CCN(C(=O)C2CC2)CC1 + CNCc1ccccc1-c1csc(C(C)Nc2nc(C)nc3cc(OC)c(OC)cc23)c1 , thanks.
**A:** 61.3

**Q:** Need viability, T/C of CN(C)C/C=C/C(=O)Nc1cc2c(Nc3ccc(F)c(Cl)c3)ncnc2cc1O[C@H]1CCOC1 + CNCc1ccccc1-c1csc(C(C)Nc2nc(C)nc3cc(OC)c(OC)cc23)c1 , thanks.
**A:** 50.8

**Q:** Need viability, T/C of CC1OCC2(CCN(c3cnc(Sc4ccnc(N)c4Cl)c(N)n3)CC2)C1N (stereo not given) + C=CC(=O)N1CCN(c2nc(=O)n(-c3c(C)ccnc3C(C)C)c3nc(-c4c(O)cccc4F)c(F)cc23)C(C)C1 , thanks.
**A:** 98.7

**Q:** Need viability, T/C of CC1OCC2(CCN(c3cnc(Sc4ccnc(N)c4Cl)c(N)n3)CC2)C1N (stereo not given) + CNCc1ccccc1-c1csc(C(C)Nc2nc(C)nc3cc(OC)c(OC)cc23)c1 , thanks.
**A:** 67.3

**Q:** Need viability, T/C of COC(=O)c1ccc2c(C(=Nc3ccc(N(C)C(=O)CN4CCN(C)CC4)cc3)c3ccccc3)c(O)[nH]c2c1 + C=CC(=O)N1CCN(c2nc(=O)n(-c3c(C)ccnc3C(C)C)c3nc(-c4c(O)cccc4F)c(F)cc23)C(C)C1 , thanks.
**A:** 103
